Biological target: T1, His-tagged human TIGIT (human, UniProt Q495A1 22-141)
T1 construct: SPR analyte; also called human TIGIT protein; not shown: His tag
T1 sequence: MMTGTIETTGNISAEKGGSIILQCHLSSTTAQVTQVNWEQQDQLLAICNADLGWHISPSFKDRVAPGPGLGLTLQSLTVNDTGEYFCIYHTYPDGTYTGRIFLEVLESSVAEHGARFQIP
Assay: SPR (Biacore T200), antibody captured, His-tagged TIGIT analyte
As shown below, each of these binders has a reported koff value.
Give a bare numeral; the unit s⁻¹ is implied.

Here's what some known entries look like.
- BINDER: "TIGIT-52 chimeric antibody (antibody, human IgG1, kappa, V domains shown, Full-length chimeric IgG1 kappa) VH: EVQLVESGGGLVEPGGSLTLSCVASGFTFSSFAMSWVRQTPEKRLEWVATISNGGSYTYYPDTVKGRFTISRDNAKNTLFLQMSSLRSEDTAMYYCARPYYGTTYGYYFDFWGQGTTLTVSS VL: QIVLTQSPASLAVSLGQRATISCRASESVDRNGNSFMHWYQQKPGQPPKLLIYLASNLESGVPARFSGSGSRTDFTLTIDPVEADDAATYYCQQNNEDPLTFGAGTKLELKR"
  koff (s⁻¹): "7.4e-05"
- BINDER: "TIGIT-94 chimeric antibody (antibody, human IgG1, kappa, V domains shown, Full-length chimeric IgG1 kappa) VH: EVKLVESGGGLVKPGGSLKLSCAASGFTFSTYTMSWVRQTPEKRLEWVATISSGGTYTHYPDSVKGRFTISRDNAKNTLYLQMSSLKSEDTAMYYCTRWFLSLYAMDYWGQGTSVTVSS VL: DIVMTQSTSSLSASLGDRVTISCRASQDINNFLNWYQQKPAGTVDLLIYYTSRLHSGVPSRFSGSGSGTDYSLTISNLDQEDIATYFCQQGNTFPYTFGGGTRLEIKR"
  koff (s⁻¹): 0.0019

IN: Query: koff; subject: TIGIT-63 chimeric antibody (antibody, human IgG1, kappa, V domains shown, Full-length chimeric IgG1 kappa) VH: DVQLVESGGGLVQPGGSLSLSCAASGFTFTDYYMNWVRQPPGKALEWLGFIRNKANGYTTEYSASVKGRFTISRDNSQSILYLQMNALRAEDSATYYCARSTAWYFDVWGTGTTLTVSS VL: DIQMTQSPASLSASVGGTVTITCRASEHIYSYLAWYQQKQGKSPQLLVYNAKTLAEGVPSRFSGSGSGTQFSLKINSLQPKDFGSYYCQHHYGNPLTFGAGTKLELKR
OUT: 0.00062
